Assay: Food effect and relative bioavailability crossover study, Compound (1) vs sodium oxybate
Conditions: human, plasma, po, 7.25 g, plasma Compound (1) Cmax, Adjusted Geometric Mean, 7.25 g Compound (1) oral, Fasted

sample smiles | Cmax (µg/mL)
CC(C)[C@H](N)C(=O)OCCCC(=O)O | 25.4

###

Experiment: Multiple ascending dose study, plasma pharmacokinetics of Compound (1) and GHB
Type: in vivo, human
Conditions: human, plasma, oral, 6 g/day, Cohort 8 (6.0 g/day divided into equal 2 doses), Dosing Day 10; read-out: Compound (1) plasma AUC0-inf, Median

compound | AUC(0-inf)
CC(C)[C@H](N)C(=O)OCCCC(=O)O [Compound (1), 4-((L-valyl)oxy)butanoic acid] | 14100 ng·h/mL

###

Test: Single ascending dose study, plasma pharmacokinetics of Compound (1) and GHB
Assay type: in vivo, human
Conditions: human, plasma, po, 3 g, Cohort 4 (3.00 g) single oral dose, fasted; read-out: Compound (1) plasma t1/2, Mean (converted)
quantity: half-life

sample smiles | quantity | observed value
CC(C)[C@H](N)C(=O)OCCCC(=O)O | half-life | 69 min

###

Experiment: Single ascending dose study, plasma pharmacokinetics of Compound (1) and GHB
Assay type: in vivo, human
Details: human, plasma, po, 7.25 g, Cohort 7 (7.25 g) single oral dose, fasted; read-out: Compound (1) plasma AUC0-inf, Median
quantity: AUC(0-inf) (ng·h/mL)

sample smiles | observed value
CC(C)[C@H](N)C(=O)OCCCC(=O)O | 19400

###

Test: Single ascending dose study, plasma pharmacokinetics of Compound (1) and GHB
Type: in vivo, human
Conditions: human, plasma, po, 0.1 g, Cohort 1 (0.10 g) single oral dose, fasted; read-out: Compound (1) plasma Cmax, Mean

compound | Cmax
CC(C)[C@H](N)C(=O)OCCCC(=O)O [Compound (1), 4-((L-valyl)oxy)butanoic acid] | 420 ng/mL

###

Test: Single ascending dose study, plasma pharmacokinetics of Compound (1) and GHB
Assay type: in vivo, human
Settings: human, plasma, po, 0.1 g, Cohort 1 (0.10 g) single oral dose, fasted; read-out: Compound (1) plasma AUC0-inf, Mean
Method: The plasma concentrations of Compound (1) and GHB in plasma in healthy human subjects were measured using liquid chromatography tandem mass-spectroscopy and evaluated using PHOENIX™ WINNONLIN® version 8.1 (Pharsight Corporation, USA) and MICROSOFT® EXCEL® (Microsoft Corporation, USA). […] Plasma samples were obtained at various times following oral administration and the plasma concentrations of Compound (1) and GHB were measured.

molecule | AUC(0-inf) [ng·h/mL]
CC(C)[C@H](N)C(=O)OCCCC(=O)O [Compound (1), 4-((L-valyl)oxy)butanoic acid] | 250

###

Experiment: Food effect and relative bioavailability crossover study, Compound (1) vs sodium oxybate
Details: human, plasma, po, 7.25 g, Compound (1) plasma Tmax, Median, 7.25 g Compound (1) oral, Fed

molecule | Tmax
CC(C)[C@H](N)C(=O)OCCCC(=O)O [Compound (1), 4-((L-valyl)oxy)butanoic acid] | 30 min

###

Test: Single ascending dose study, plasma pharmacokinetics of Compound (1) and GHB
Assay type: in vivo, human
Details: human, plasma; Cohort 7 (7.25 g) single oral dose, fasted; read-out: Compound (1) plasma Tmax, Median

sample smiles | Tmax, min
CC(C)[C@H](N)C(=O)OCCCC(=O)O | 37.2

###

Experiment: Single ascending dose study, plasma pharmacokinetics of Compound (1) and GHB
Assay type: in vivo, human
Conditions: human, plasma, po, 0.1 g, Cohort 1 (0.10 g) single oral dose, fasted; read-out: Compound (1) plasma AUC0-tlast, Mean

compound | AUC(0-t)
CC(C)[C@H](N)C(=O)OCCCC(=O)O [Compound (1), 4-((L-valyl)oxy)butanoic acid] | 249 ng·h/mL
